molecular target: VR1 (Homo sapiens, UniProt Q8NER1); assay: Functional assay: block of capsaicin-induced Ca2+ influx (FLIPR, hVR1/HEK293 cells); details: block of Ca2+ influx induced by 15 nM capsaicin; hVR1/HEK293; 3 and 60 min incubation data combined
Sequence (Q8NER1 whole entry): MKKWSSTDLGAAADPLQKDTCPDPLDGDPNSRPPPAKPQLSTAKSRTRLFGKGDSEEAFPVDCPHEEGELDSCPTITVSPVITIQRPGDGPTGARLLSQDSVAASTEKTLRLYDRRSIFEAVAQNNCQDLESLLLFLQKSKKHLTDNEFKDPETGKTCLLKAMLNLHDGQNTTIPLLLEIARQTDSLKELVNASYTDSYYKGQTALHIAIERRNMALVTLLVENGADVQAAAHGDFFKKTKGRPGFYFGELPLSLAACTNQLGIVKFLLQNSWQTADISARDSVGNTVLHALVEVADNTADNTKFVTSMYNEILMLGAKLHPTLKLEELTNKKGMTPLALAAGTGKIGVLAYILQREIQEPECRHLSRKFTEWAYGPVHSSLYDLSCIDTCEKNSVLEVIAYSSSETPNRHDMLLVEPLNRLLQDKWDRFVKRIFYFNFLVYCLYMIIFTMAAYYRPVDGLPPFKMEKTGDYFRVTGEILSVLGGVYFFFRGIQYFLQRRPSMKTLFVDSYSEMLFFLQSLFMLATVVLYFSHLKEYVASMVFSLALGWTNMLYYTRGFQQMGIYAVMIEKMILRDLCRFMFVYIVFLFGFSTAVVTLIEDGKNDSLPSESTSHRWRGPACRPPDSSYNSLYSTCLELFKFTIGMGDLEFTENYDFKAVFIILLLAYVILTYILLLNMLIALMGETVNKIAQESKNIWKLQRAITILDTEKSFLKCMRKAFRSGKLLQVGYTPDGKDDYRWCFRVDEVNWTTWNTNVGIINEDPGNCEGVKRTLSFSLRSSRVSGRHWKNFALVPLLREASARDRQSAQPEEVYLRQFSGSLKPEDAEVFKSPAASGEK
quantityKind: IC50

[
  {
    "structureSmiles": "O=C(Nc1ccc(C(F)(F)F)cn1)N1CCN(c2ncccc2Cl)CC1",
    "result": "120 nM"
  }
]

* * *

biological target: VR1 (Homo sapiens, UniProt Q8NER1); assay: [3H] Resiniferatoxin binding assay on cell membranes; set-up: expressed in transfected cells; inferred to be hVR1/HEK293; conditions: [3H] RTX displacement, 37° C. 60 min

[
  {
    "structureSmiles": "O=C(Nc1ccc(C(F)(F)F)cn1)N1CCN(c2ncccc2Cl)CC1",
    "Ki [nM]": 1020
  }
]
